- measured on: T1, Human IL-2 R beta/CD122 Protein, Fc Tag (ILB-H5253) (human, UniProt P14784 27-239)
- T1 construct: Bought protein, captured on anti-human Fc sensors; also called huIL2Rβ; IL-2Rβ; not shown: Fc tag of the bought reagent
- T1 sequence (looked up): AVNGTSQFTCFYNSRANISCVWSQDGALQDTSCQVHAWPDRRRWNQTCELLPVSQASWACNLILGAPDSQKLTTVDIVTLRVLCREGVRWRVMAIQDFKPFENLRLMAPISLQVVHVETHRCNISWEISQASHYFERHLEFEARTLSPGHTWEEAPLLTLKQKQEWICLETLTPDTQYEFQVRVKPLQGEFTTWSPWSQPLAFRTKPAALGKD
- test method notes: Octet BLI; IL-2Rβ-Fc on anti-human Fc sensors, Neo-2/15 variant as analyte, 1:1 steady-state model
outcome measure: pKd
Numbers only, as −log10 of the molar value.

List reported pKd for each of these binders:
1. Neo-2/15_I44A (designed binder) PKKKIQLHAEHALYDALMILNIVKTNSPPAEEKLEDYAFNFELALEEIARLFESGDQKDEAEKAKRMKEWMKRIKTTASEDEQEEMANAIITILQSWIFS
2. Neo-2/15_N40A (designed binder) PKKKIQLHAEHALYDALMILNIVKTNSPPAEEKLEDYAFAFELILEEIARLFESGDQKDEAEKAKRMKEWMKRIKTTASEDEQEEMANAIITILQSWIFS
3. Neo-2/15_D15A (designed binder) PKKKIQLHAEHALYAALMILNIVKTNSPPAEEKLEDYAFNFELILEEIARLFESGDQKDEAEKAKRMKEWMKRIKTTASEDEQEEMANAIITILQSWIFS
4. Neo-2/15_Q95A (designed binder) PKKKIQLHAEHALYDALMILNIVKTNSPPAEEKLEDYAFNFELILEEIARLFESGDQKDEAEKAKRMKEWMKRIKTTASEDEQEEMANAIITILASWIFS

1: 7.08; 2: 7.22; 3: 6.85; 4: 8.52
